These data points were gathered from patent US9113629B2.

Catalogue of GR50 LEFSS values
Test system: test plant species in Direct Seeded Rice
Test: Postemergence herbicidal activity in direct seeded rice (Table 13)
Type: in vivo
Conditions: LEFSS: sprangletop (Leptochloa chinensis, Leptochloa dubia); probit analysis

| substance_smiles | cmp | GR50 LEFSS, g ai/ha |
| --- | --- | --- |
| Nc1c(Cl)c(C(=O)O)nc(-c2ccc(I)cc2)c1Cl | = | 24 |
| COC(=O)c1nc(-c2ccc(Br)cc2F)cc(N)c1Cl | = | 6 |
| COC(=O)c1nc(-c2ccc(C(F)(F)F)c(F)c2)c(Cl)c(N)c1Cl | > | 70 |
| COc1c(N)nc(-c2ccc(Br)c(F)c2F)nc1C(=O)O | > | 70 |
| Nc1c(F)c(-c2ccc(Cl)c(F)c2)nc(C(=O)O)c1Cl | = | 1 |

###

Test system: Key Broadleaf Weed and Crop Species
Test: Post-emergent Test II herbicidal activity (Table 5)
Format: in vivo
Details: post-emergence, 336 h; ABUTH: velvetleaf (Abutilon theophrasti); application rate 140 g ai/ha; 14 days after application; read-out: Visual Growth Reduction (%) 14 Days After Application, ABUTH
pest or weed control at 140 g/ha listing for selected molecules.

| substance_smiles | pest or weed control at 140 g/ha |
| --- | --- |
| COC(=O)c1nc(-c2ccc(C#N)cc2F)cc(N)c1Cl | 95 to 100% |
| Nc1c(F)c(-c2ccc(OC(F)F)cc2F)nc(C(=O)O)c1Cl | 0 to 29% |
| Nc1c(F)c(-c2ccc(Br)c(F)c2F)nc(C(=O)O)c1Cl | 0 to 29% |
| Nc1cc(-c2ccc(C(F)(F)F)c(F)c2F)nc(C(=O)O)c1Cl | 95 to 100% |

###

Test system: Key Grass and Sedge Weeds as well as Grass Crops
Experiment: Post-emergent Test II herbicidal activity (Table 6)
Format: in vivo
Conditions: post-emergence, 336 h, SETFA: giant foxtail (Setaria faberi), 140 g ai/ha, read-out: Visual Growth Reduction (%) 14 Days After Application, SETFA
readout_kind: pest or weed control at 140 g/ha

| compound | result |
| --- | --- |
| COC(=O)c1nc(-c2ccc(Br)cc2)nc(N)c1OC [Compound 97] | 30 to 44% |
| C=Cc1c(C(=O)OC)nc(-c2ccc(Cl)c(F)c2)c(F)c1N [Compound 215] | 0 to 29% |
| C#Cc1ccc(-c2nc(N)c(OC)c(C(=O)O)n2)c(F)c1 [Compound 41] | 0 to 29% |
| COc1c(N)nc(-c2ccc(I)cc2)nc1C(=O)O [Compound 88] | 85 to 94% |
| COC(=O)c1nc(-c2ccc(OC(F)F)cc2F)c(F)c(N)c1Cl [Compound 104] | 0 to 29% |
| COC(=O)c1nc(-c2ccc([N+](=O)[O-])cc2)c(F)c(N)c1Cl [Compound 95] | 0 to 29% |
| Nc1c(F)c(-c2ccc(Br)c(F)c2F)nc(C(=O)O)c1Cl [Compound 147] | 95 to 100% |
| C#Cc1ccc(-c2nc(C(=O)O)c(Cl)c(N)c2F)c(F)c1F [Compound 50] | 45 to 59% |
| COC(=O)c1nc(-c2ccc(C(F)F)c(F)c2)cc(N)c1Cl [Compound 196] | 0 to 29% |
